system: HCC-2998 colon; assay: NCI tumour cell line growth inhibition, 48 h
Experimental readout: TGI

CN(C)CCN(c1ccccn1)c1ccccn1 ... > 100 µM
CCNc1nc(O)c(/C=C2\C=Nc3ncccc32)s1 ... 36.7 µM
CCOC(=O)c1nc(C)oc1C(F)(F)F ... > 100 µM

Suppose we examine the compound O=C(ON=C1c2ccccc2C(Br)C(Br)c2ccccc21)c1ccccc1 (configuration not stated) ; what TGI value has been reported?
38.1 µM

Same read-out for NNC(=O)C(=O)N/N=C1/CCCC1C(=O)CCC(=O)Nc1ccc(Cl)cc1 (configuration not stated) ?
> 100 µM

// repeat for `CC(C)(CO)CNC(=O)c1ccc2[nH]c(O)c(N=Nc3ccc(S(N)(=O)=O)cc3)c2c1` and report
> 25 µM

What would you report for CC1(C)CC(=O)C2=C(C1)C(c1ccccc1Cl)C1C(=O)CC(C)(C)CC1(O)O2 (configuration not stated) ?
> 100 µM

# repeat for c1ccc(C2=NC3OC2c2ccccc23)cc1 (configuration not stated)
> 10 µM

What do you get for `COc1ccc2c(c1)c1c(n2CCN2CCCCC2)-c2cccc(OC)c2CC1` ?
36.4 µM

Query O=C1CC(c2ccccc2)Oc2ccccc21 (configuration not stated) next
> 100 µM

What do you get for `COc1ccc(OC)c(/C=C/c2nc(=S)n(-c3ccc(Cl)cc3)[nH]2)c1` ?
> 100 µM

And then `CN(C)CCNC(=O)c1cccc2c1Nc1ccccc1S2` , what is it?
27.2 µM

====

Reported values of TGI for individual entries
system: OVCAR-5 ovarian; assay: NCI tumour cell line growth inhibition, 48 h

CCc1cccc(C)c1NC(=O)CCc1nc(=S)[nH][nH]1 ... > 100 µM
c1ccc2c(c1)SCCCS2 ... > 100 µM
N#CNC(N)=NCc1ccccc1 ... > 100 µM
CC(C)NC(=O)OCc1c(COC(=O)NC(C)C)n(C)c2c1ccc1sccc12 ... > 100 µM

// lookup TGI for CC1CC(N2CCOCC2)=Nc2ccccc2N1C (stereo not drawn)
> 100 µM

# repeat for `O=C1Oc2ccccc2C(=O)/C1=C1/C=C(c2ccccc2)SS1`
> 100 µM

Repeat with C[C@@H]1CC[C@@]2(C)C(C(=O)O)=CCCC2[C@@]1(C)CC(=O)c1ccoc1 (stereo partly drawn)
> 25 µM

Lookup C[C@]12Cc3cn[nH]c3C(=O)C1CC[C@@H]1C2CC[C@@]2(C)C1CC[C@@H]2O (stereo partly drawn)
> 100 µM

# repeat for CCOC(=O)C1C(c2ccc(Cl)cc2Cl)NC(c2ccc(C)cc2)C(C(=O)OC)S1(=O)=O (stereo not drawn)
> 100 µM

====

test system: SK-MEL-28 melanoma; experiment: NCI tumour cell line growth inhibition, 48 h
Parameter: TGI. Scope: all listed entries.

Examples from the recorded data:
CC(=O)O[C@@H](c1nccn1Cc1ccccc1)[C@H]1OC(C)(C)O[C@@H]1[C@H]1COC(C)(C)O1 ... > 100 µM
CCc1ccccc1NC(=O)c1cccc([N+](=O)[O-])c1O ... > 100 µM
COc1ccc(CNc2cnc3ccc(N)cc3n2)cc1 ... > 100 µM

# lookup: TGI of `COCOc1ccc(C(=O)Oc2cccc3c2OC(C)(C)O3)c(OCOC)c1`
> 100 µM

Next molecule up: `O=C(O)c1nc2ccc(C(F)(F)F)cc2[nH]c1=O`
> 100 µM

Proceed to COc1nc2c(c(O)c(C)c(=O)n2OC2OCC(OC(C)=O)C(OC(C)=O)C2OC(C)=O)c(=O)n1C (stereo unspecified)
> 100 µM

====

compounds and their reported TGI
tested on: NCI/ADR-RES ovarian; assay: NCI tumour cell line growth inhibition, 48 h

Worked set:
Nc1ncc(Cc2ccc3c(c2)OCO3)c(N)n1 ... > 100 µM
O=C(/C=C/c1ccc(Cl)cc1)Oc1ccc(C=C2CCC/C(=C\c3ccc(OC(=O)/C=C/c4ccc(Cl)cc4)cc3)C2=O)cc1 ... > 100 µM

Could you tell me which TGI is on file for COC(=O)OC1C(O[C@H]2C[C@H]3[C@@H]4CC=C5C[C@@H](O)CC[C@]5(C)[C@H]4CC[C@]3(C)[C@H]2[C@H](C)C(=O)CCC(C)C)OCC(O)C1OC1OCC(O)C(O)C1OC(=O)c1ccc(OC)cc1 (some centres undefined) ?
> 27.5 µM

Next compound up: CCCCCCCCCCCC[N+]1(CCCCCCCCCCCC)CCCC(C)C1 (centres undefined)
> 100 µM

====

tested on: SR leukemia; assay: NCI tumour cell line growth inhibition, 48 h
// values below are reported TGI

Below: 2 compounds and their reported TGI.
CN(C)CCN(c1ccccn1)c1ccccn1 ... > 100 µM
COc1cc2nc(-c3ccc(Cl)cc3)cc(OCCCN3CCOCC3)c2cc1OC ... > 100 µM

Now examine the next entry.
Would you mind telling me what TGI value was observed for COc1cc2oc(-c3ccc(O)cc3)cc(=O)c2c(O)c1C1OC(CO)C(O)C(O)C1O (stereo not drawn) ?
> 100 µM

====

Known TGI of a selection of compounds
system: SK-MEL-2 melanoma; experiment: NCI tumour cell line growth inhibition, 48 h

Known TGI results, listed for orientation:
CSCC[C@@H](NC(=O)[C@H](CC(C)C)NC(=O)C(Cc1cnc[nH]1)NC(=O)CNC(=O)[C@@H](NC(=O)[C@H](C)NC(=O)[C@H](Cc1c[nH]c2ccccc12)NC(=O)[C@H](CCC(N)=O)NC(=O)[C@@H](N)CC(N)=O)C(C)C)C(N)=O (stereo partly drawn) ... > 100 µM
CCN(C)c1nc(N(C)CC)c2nc(N(C)CC)nc(N(C)CC)c2n1 ... > 100 µM

Shifting focus to the compound that follows.
What measured TGI goes with `O=C1c2cccc(Oc3ccccc3)c2C(=O)c2cccc(Oc3ccccc3)c21` ?
> 100 µM

====

test system: IGROV1 ovarian; test: NCI tumour cell line growth inhibition, 48 h; in the data active = GI50 below about 0.43 µM; inactive = the rest
The reply should be one of these categories: y (active), n (inactive)

Known results for compounds:
CCN=c1sc2c(n1NC(=O)c1cc3ccc1CCc1ccc(cc1)CC3)C(=O)c1ccccc1C2=O ... n
CC(=O)O[C@H]1C(=O)[C@@]2(C)C([C@H](OC(=O)c3ccccc3)[C@]3(O)C[C@H](OC(=O)[C@H](O)[C@@H](NC(=O)c4ccccc4)c4ccccc4)C(C)=C1C3(C)C)[C@]1(OC(C)=O)CO[C@@H]1C[C@@H]2O (stereo partly specified) ... y
Cc1ccc(O)cc1Nc1ccnc2ccc(S(C)(=O)=O)cc12 ... n
N#CC1(c2ccc(NC(=O)c3cccnc3NCc3ccncc3)cc2)CCCC1 ... n
CCN1C(=S)N(CC)C2C1NC(=S)N2/N=C/C=C/c1ccccc1OC (stereo unspecified) ... n

Moving on to the next compound.
Can you look up the reported call for `Cc1ccc2c(-c3ccnc(Nc4ccc5c(c4)OCCO5)n3)c(-c3ccc(C(F)(F)F)cc3)nn2n1` for me?
n

====

test system: RPMI-8226 leukemia; assay: NCI tumour cell line growth inhibition, 48 h
Experimental readout: TGI

O=[N+]([O-])c1ccc(Cl)c2c([N+](=O)[O-])cccc12 ... > 10 µM

Please give the measured TGI for this molecule: `CC1(C)N=C(N)N=C(N)N1c1ccc(CCC(=O)Nc2ccc(S(=O)(=O)F)cc2)cc1`
> 100 µM

# iterate: CCCCCCCC(=O)OCC(COC(=O)C(C)(C)C)OC(=O)Cc1ccccc1 (centres undefined)
> 100 µM

What do we get for `O=C1NC2=C(CCCCC/C2=N\O)C12CCCCCC2` ?
> 100 µM

====

tested on: SK-MEL-28 melanoma; assay: NCI tumour cell line growth inhibition, 48 h
Recorded measurements of TGI, one per entry

Field: example entries. Status: answers known.
COC(=O)[C@]1(C)CCC[C@@]2(C)C1CC[C@]13C=C(C(C)C)[C@H](CC21)CC3(Cl)C#N (stereo not given in full) ... > 100 µM
CCN(C)c1nc(N(C)CC)c2nc(N(C)CC)nc(N(C)CC)c2n1 ... > 100 µM
C[C@]12Cc3cn[nH]c3C(=O)C1CC[C@@H]1C2CC[C@@]2(C)C1CC[C@@H]2O (stereo not given in full) ... > 100 µM
O=c1/c(=C/c2ccccc2[N+](=O)[O-])sc2nnc(-c3cccnc3)n12 ... > 100 µM

Consider now this further compound.
I'm curious: which TGI was measured for CC1CC(N2CCOCC2)=Nc2ccccc2N1C (stereo not given) tested on SK-MEL-28 melanoma?
> 100 µM

====

system: U251 CNS; experiment: NCI tumour cell line growth inhibition, 48 h
Experimental readout: TGI

# query: TGI of entry O=[N+]([O-])c1cccc(C2=NN(c3ccccc3)C3c4cc(Br)ccc4OCC23)c1 (stereo not drawn)
> 100 µM

Next molecule: `CCc1c(O)cc(=O)oc1-c1ccc(OC)c(OC)c1`
> 100 µM

// repeat for O=C(/C=C/C12c3ccccc3C(c3ccccc31)C1C(=O)NC(=O)C12)c1ccccn1 (stereo not drawn) and report
2.74 µM

And then `CCCCCCN(CCCCCC)C(=S)N/N=C(\C)c1ccccn1` , what is it?
1.71 µM

Record: `Cc1nc(N)nc(CCC(=O)Nc2cccc(C(F)(F)F)c2)c1-c1ccc(Cl)cc1`
> 100 µM

Cool, now `Cc1ccc(O)cc1Nc1ccnc2ccc(S(C)(=O)=O)cc12`
> 25 µM

// query: O=C(NC12CC3CCC1CC(C3)C2)[C@@H]1CCCN1C(=O)OCc1ccccc1 (stereo partly drawn)
> 100 µM

Next entry: `CCN(C)c1nc(N(C)CC)c2nc(N(C)CC)nc(N(C)CC)c2n1`
> 100 µM
